System: Candida albicans
procedureDetails: Concentration at which 50% of the cells incubated, were not able to form colonies when replated.
Format: functional
Catalogue of Viability readings, one per entry.
Unit mM implied. Number only.

Below, 2 compounds whose answers are already recorded.
- compound: "CCCCC(N)C(=O)NC(C(=O)O)[C@H]1O[C@@H](n2ccc(=O)[nH]c2=O)[C@H](O)[C@@H]1O (some centres not stated)"
  testTarget: "Candida albicans"
  Viability, mM: 4
- compound: "NC(Cc1ccc(Oc2ccc(O)cc2)cc1)C(=O)NC(C(=O)O)[C@H]1O[C@@H](n2ccc(=O)[nH]c2=O)[C@H](O)[C@@H]1O (some centres not stated)"
  testTarget: "Candida albicans"
  Viability, mM: 4

Please examine the following record next.
For the compound NC(=O)OCC(O)C(O)C(N)C(=O)NC(C(=O)O)[C@H]1O[C@@H](n2cc(C(=O)O)c(=O)[nH]c2=O)[C@H](O)[C@@H]1O (some centres not stated) , what Viability is on record?
1

###

Catalogue of minimal effective concentration readings, one per entry.
Tested on: Candida albicans
procedureDetails: Minimum effective concentration is the lowest concentration at which some (5%) morphologically abnormal cells were observed under microscopic examination.
Type: functional
conditionContext: read-out: MEC
Unit µM implied. Number only.

Below, 3 compounds whose answers are already recorded.
- compound: "NC(CCc1ccccc1)C(=O)NC(C(=O)O)[C@H]1O[C@@H](n2ccc(=O)[nH]c2=O)[C@H](O)[C@@H]1O (stereo partly drawn)"
  readingUnit: "µM"
  numericValue: 60
- compound: "NC(Cc1ccc(O)cc1)C(=O)NC(C(=O)O)[C@H]1O[C@@H](n2ccc(=O)[nH]c2=O)[C@H](O)[C@@H]1O (stereo partly drawn)"
  readingUnit: "µM"
  numericValue: 8000
- compound: "NC(=O)OCC(O)C(O)C(N)C(=O)NC(C(=O)O)[C@H]1O[C@@H](n2cc(C(=O)O)c(=O)[nH]c2=O)[C@H](O)[C@@H]1O (stereo partly drawn)"
  readingUnit: "µM"
  numericValue: 2

For the compound N[C@@H](Cc1c[nH]c2ccccc12)C(=O)NC(C(=O)O)[C@H]1O[C@@H](n2ccc(=O)[nH]c2=O)[C@H](O)[C@@H]1O (stereo partly drawn) , what minimal effective concentration is on record?
130

For the compound NC(Cc1ccc(Oc2ccc(O)cc2)cc1)C(=O)NC(C(=O)O)[C@H]1O[C@@H](n2ccc(=O)[nH]c2=O)[C@H](O)[C@@H]1O (stereo partly drawn) , what minimal effective concentration is on record?
2000

###

testTarget: UniProtKB P23316
Sequence (P23316 whole entry, looked up): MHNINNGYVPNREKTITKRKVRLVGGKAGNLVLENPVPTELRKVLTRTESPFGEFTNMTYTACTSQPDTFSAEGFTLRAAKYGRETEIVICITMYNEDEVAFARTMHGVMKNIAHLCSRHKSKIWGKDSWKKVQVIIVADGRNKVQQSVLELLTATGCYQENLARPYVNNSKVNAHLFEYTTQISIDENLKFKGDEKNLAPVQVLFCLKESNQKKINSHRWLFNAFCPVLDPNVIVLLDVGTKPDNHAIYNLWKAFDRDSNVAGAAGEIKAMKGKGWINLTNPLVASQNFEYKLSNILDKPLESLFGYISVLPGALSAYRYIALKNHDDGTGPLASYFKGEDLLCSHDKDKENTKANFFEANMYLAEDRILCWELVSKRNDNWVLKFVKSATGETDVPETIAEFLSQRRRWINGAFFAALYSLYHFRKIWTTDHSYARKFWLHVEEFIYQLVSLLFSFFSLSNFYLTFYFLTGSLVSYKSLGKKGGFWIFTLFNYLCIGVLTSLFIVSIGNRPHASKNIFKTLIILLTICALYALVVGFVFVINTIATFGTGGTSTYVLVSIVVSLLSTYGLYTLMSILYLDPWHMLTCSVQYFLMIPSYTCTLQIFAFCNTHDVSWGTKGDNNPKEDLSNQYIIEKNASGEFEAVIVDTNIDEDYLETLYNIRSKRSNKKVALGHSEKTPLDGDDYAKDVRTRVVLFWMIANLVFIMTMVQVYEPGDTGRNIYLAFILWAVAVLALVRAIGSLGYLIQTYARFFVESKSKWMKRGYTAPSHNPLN
procedureDetails: Inhibitory activity against chitin synthetase from Candida albicans H-317
Type: functional
observedProperty: ID50 (µM)
Unit µM implied. Number only.

Below, 6 molecules whose answers are already recorded.
- molecule: "NC(=O)OCC(O)C(O)C(N)C(=O)NC(C(=O)O)[C@H]1O[C@@H](n2cc(C(=O)O)c(=O)[nH]c2=O)[C@H](O)[C@@H]1O (stereo partly drawn)"
  readingUnit: "µM"
  ID50: 1.8
- molecule: "NC(CCc1ccccc1)C(=O)NC(C(=O)O)[C@H]1O[C@@H](n2ccc(=O)[nH]c2=O)[C@H](O)[C@@H]1O (stereo partly drawn)"
  readingUnit: "µM"
  ID50: 3.8
- molecule: "CCCCC(N)C(=O)NC(C(=O)O)[C@H]1O[C@@H](n2ccc(=O)[nH]c2=O)[C@H](O)[C@@H]1O (stereo partly drawn)"
  readingUnit: "µM"
  ID50: 14
- molecule: "NC(=O)NCCCC(N)C(=O)N[C@@H](C(=O)O)[C@H]1O[C@@H](n2ccc(=O)[nH]c2=O)[C@H](O)[C@@H]1O (stereo partly drawn)"
  readingUnit: "µM"
  ID50: 68
- molecule: "NC(Cc1ccc(Oc2ccc(O)cc2)cc1)C(=O)NC(C(=O)O)[C@H]1O[C@@H](n2ccc(=O)[nH]c2=O)[C@H](O)[C@@H]1O (stereo partly drawn)"
  readingUnit: "µM"
  ID50: 16
- molecule: "NC(Cc1ccc(O)cc1)C(=O)NC(C(=O)O)[C@H]1O[C@@H](n2ccc(=O)[nH]c2=O)[C@H](O)[C@@H]1O (stereo partly drawn)"
  readingUnit: "µM"
  ID50: 4.9

For the molecule N[C@@H](Cc1c[nH]c2ccccc12)C(=O)NC(C(=O)O)[C@H]1O[C@@H](n2ccc(=O)[nH]c2=O)[C@H](O)[C@@H]1O (stereo partly drawn) , what ID50 is on record?
1.7

###

Tested on: Candida albicans
procedureDetails: Minimum effective concentration is the lowest concentration at which some (5%) morphologically abnormal cells were observed under microscopic examination.
Format: functional
conditionContext: read-out: MEC
observedProperty: minimal effective concentration (µM)
Unit µM implied. Number only.

Below, 2 molecules whose answers are already recorded.
- molecule: "CCCCC(N)C(=O)NC(C(=O)O)[C@H]1O[C@@H](n2ccc(=O)[nH]c2=O)[C@H](O)[C@@H]1O (stereo partly drawn)"
  numericValue: 170
- molecule: "NC(C(=O)O)[C@H]1O[C@@H](n2ccc(=O)[nH]c2=O)[C@H](O)[C@@H]1O (stereo partly drawn)"
  numericValue: 8000

Please examine the following record next.
For the molecule NC(=O)NCCCC(N)C(=O)N[C@@H](C(=O)O)[C@H]1O[C@@H](n2ccc(=O)[nH]c2=O)[C@H](O)[C@@H]1O (stereo partly drawn) , what minimal effective concentration is on record?
500
